- methodNotes: Pharmacokinetics after intravenous peptide administration in mice
- Design: species or system C57BL/6 mice
- statedConditions: mouse, in vivo; C57BL/6 mice, IV 2 mg/kg, formulation of 0.4 mg/mL; read-out: T1/2 (converted)
- Experimental: GPR-10 and peptides were dosed IV at 2 mg/kg as a formulation of 0.4 mg/mL in […]+65% water (pH 6-7).
Starred links: 1 amine or outer side, 2 acyl side, 3 side chain; linkers in the order of their positions; H or OH if unused. Non-standard residues stand in square brackets, D forms with d. Residues, ends and D or L forms follow the SMILES beside them. *: point of attachment. Trp(7-Me) = Cc1cccc2c(C[C@H](N)C(=O)O)c[nH]c12; C20 diacid = O=C(O)CCCCCCCCCCCCCCCCCCC(=O)*; d(γGlu) = O=C(O)[C@@H](CCC(=O)[*:2])N[*:1]; C18 diacid = O=C(O)CCCCCCCCCCCCCCCCC(=O)*; γGlu = O=C(O)[C@H](CCC(=O)[*:2])N[*:1]; Nle = CCCC[C@H](N)C(=O)O; AEEA = NCCOCCOCC(=O)O; βAla = NCCC(=O)O
half-life values, listed per item
Your answer should be a plain number; it is taken to be in h.

Look over these answered cases.
compound: CCCC[C@H](NC(=O)[C@H](CC(C)C)NC(=O)[C@H](Cc1c[nH]cn1)NC(=O)CCNC(=O)[C@@H](NC(=O)[C@H](C)NC(=O)[C@H](Cc1c[nH]c2ccccc12)NC(=O)[C@H](Cc1c[nH]cn1)NC(=O)[C@H](CCC(N)=O)NC(=O)CNC(=O)COCCOCCNC(=O)COCCOCCNC(=O)CC[C@H](NC(=O)CCCCCCCCCCCCCCCCCCC(=O)O)C(=O)O)C(C)C)C(N)=O [Peptide 241] ({C20 diacid-γGlu-AEEA-AEEA}-GQHWAV[βAla]HL[Nle]-NH2)
readoutLabel: half-life
measureUnit: h
recordedResult: 7
//
compound: CCCC[C@H](NC(=O)[C@H](CC(C)C)NC(=O)[C@H](Cc1c[nH]cn1)NC(=O)CCNC(=O)[C@@H](NC(=O)[C@H](C)NC(=O)[C@H](Cc1c[nH]c2c(C)cccc12)NC(=O)[C@H](Cc1c[nH]cn1)NC(=O)[C@H](CCC(=O)O)NC(=O)CNC(=O)[C@H](CO)NC(=O)COCCOCCNC(=O)COCCOCCNC(=O)CC[C@H](NC(=O)CC[C@H](NC(=O)CCCCCCCCCCCCCCCCCCC(=O)O)C(=O)O)C(=O)O)C(C)C)C(N)=O [Peptide 255] ({C20 diacid-γGlu-γGlu-AEEA-AEEA}-SGEH[Trp(7-Me)]AV[βAla]HL[Nle]-NH2)
readoutLabel: half-life
measureUnit: h
recordedResult: 9.4
//
compound: CCCC[C@H](NC(=O)[C@H](CC(C)C)NC(=O)[C@H](Cc1c[nH]cn1)NC(=O)[C@@H](C)NC(=O)[C@@H](NC(=O)[C@H](C)NC(=O)[C@H](Cc1c[nH]c2ccccc12)NC(=O)[C@H](Cc1c[nH]cn1)NC(=O)[C@H](CC(N)=O)NC(=O)CNC(=O)COCCOCCNC(=O)COCCOCCNC(=O)CC[C@@H](NC(=O)CCCCCCCCCCCCCCCCC(=O)O)C(=O)O)C(C)C)C(N)=O [Peptide 9] ({C18 diacid-d(γGlu)-AEEA-AEEA}-GNHWAV[dA]HL[Nle]-NH2)
readoutLabel: half-life
measureUnit: h
recordedResult: 5.7

Please list half-life recorded for the compound CCCCCCCCCCCCCCCC(=O)N[C@H](CCC(=O)NCCOCCOCC(=O)NCCOCCOCC(=O)NCC(=O)N[C@@H](CC(N)=O)C(=O)N[C@@H](Cc1c[nH]cn1)C(=O)N[C@@H](Cc1c[nH]c2ccccc12)C(=O)N[C@@H](C)C(=O)N[C@H](C(=O)NCC(=O)N[C@@H](Cc1c[nH]cn1)C(=O)N[C@@H](CC(C)C)C(=O)N[C@@H](CCSC)C(N)=O)C(C)C)C(=O)O [Peptide 8] 2

Please list half-life recorded for the compound CCCC[C@H](NC(=O)[C@H](CC(C)C)NC(=O)[C@H](Cc1c[nH]cn1)NC(=O)CCNC(=O)[C@@H](NC(=O)[C@H](C)NC(=O)[C@H](Cc1c[nH]c2c(C)cccc12)NC(=O)[C@H](Cc1c[nH]cn1)NC(=O)[C@H](CCCNC(=N)N)NC(=O)CNC(=O)[C@H](CCC(=O)O)NC(=O)COCCOCCNC(=O)COCCOCCNC(=O)CC[C@H](NC(=O)CC[C@H](NC(=O)CCCCCCCCCCCCCCCCCCC(=O)O)C(=O)O)C(=O)O)C(C)C)C(N)=O [Peptide 252] ({C20 diacid-γGlu-γGlu-AEEA-AEEA}-EGRH[Trp(7-Me)]AV[βAla]HL[Nle]-NH2) 6.6
